conditions: in 2-methoxyethanol, 283.15 K
METRIC: solubility (mole fraction)
# print the numeric value only

Entry O=[N+]([O-])c1ccc(Oc2ccc([N+](=O)[O-])cc2)cc1 has what solubility (mole fraction)?
0.00657

----------
conditions: in isopropanol, 288.15 K
METRIC: solubility (mole fraction)
Write the number on its own, no unit after it.

Consider the molecule O=[N+]([O-])c1ccc(Oc2ccc([N+](=O)[O-])cc2)cc1 and give its measured solubility (mole fraction).
0.000199

----------
conditions: in acetic acid, 298.15 K
METRIC: solubility (mole fraction)
The response must contain the number and no unit.

Would you mind telling me what solubility (mole fraction) value was observed for O=[N+]([O-])c1ccc(Oc2ccc([N+](=O)[O-])cc2)cc1 ?
0.00469

----------
details: in DMF, 313.15 K
METRIC: solubility (mole fraction)

Record request: solubility (mole fraction) value, item O=[N+]([O-])c1ccc(Oc2ccc([N+](=O)[O-])cc2)cc1
0.111

----------
conditions: in acetonitrile, 308.15 K
METRIC: solubility (mole fraction)
Lab note: jot down the number only; don't add units.

Could you share which solubility (mole fraction) value was measured for O=[N+]([O-])c1ccc(Oc2ccc([N+](=O)[O-])cc2)cc1 ?
0.0129

----------
details: in 2-methoxyethanol, 318.15 K
METRIC: solubility (mole fraction)
Just the number, please.

Give its solubility (mole fraction) value. Item: O=[N+]([O-])c1ccc(Oc2ccc([N+](=O)[O-])cc2)cc1
0.0182

----------
details: in methanol, 323.15 K
METRIC: solubility (mole fraction)
Give a plain numeric answer without units written out.

Item O=[N+]([O-])c1ccc(Oc2ccc([N+](=O)[O-])cc2)cc1 has what recorded solubility (mole fraction)?
0.00145

----------
details: in ethyl acetate, 293.15 K
METRIC: solubility (mole fraction)
Respond using a number only.

State the recorded solubility (mole fraction) for this entry: O=[N+]([O-])c1ccc(Oc2ccc([N+](=O)[O-])cc2)cc1
0.0172

----------
settings: in DMF, 288.15 K
METRIC: solubility (mole fraction)
Keep it simple and answer with nothing but the number.

Which value of solubility (mole fraction) has been reported for O=[N+]([O-])c1ccc(Oc2ccc([N+](=O)[O-])cc2)cc1 in the records?
0.0612

----------
conditions: in 1,4-dioxane, 313.15 K
METRIC: solubility (mole fraction)
Response field accepts a number only; no unit should be typed.

Please give the measured solubility (mole fraction) for this compound: O=[N+]([O-])c1ccc(Oc2ccc([N+](=O)[O-])cc2)cc1
0.08

----------
settings: in n-butanol, 313.15 K
METRIC: solubility (mole fraction)
Reply briefly: the number, and no unit.

Request the reported solubility (mole fraction) associated with O=[N+]([O-])c1ccc(Oc2ccc([N+](=O)[O-])cc2)cc1
0.00144

----------
details: in acetonitrile, 293.15 K
METRIC: solubility (mole fraction)
# print the numeric value only

What value of measured solubility (mole fraction) is listed for O=[N+]([O-])c1ccc(Oc2ccc([N+](=O)[O-])cc2)cc1 ?
0.00682

----------
settings: in DMF, 303.15 K
METRIC: solubility (mole fraction)
No unit in the answer, only the number.

I would be grateful if you could share the reported solubility (mole fraction) for O=[N+]([O-])c1ccc(Oc2ccc([N+](=O)[O-])cc2)cc1 .
0.0883

----------
details: in ethanol, 288.15 K
METRIC: solubility (mole fraction)

Which solubility (mole fraction) value is on record for O=[N+]([O-])c1ccc(Oc2ccc([N+](=O)[O-])cc2)cc1 ?
0.000369

----------
details: in acetic acid, 323.15 K
METRIC: solubility (mole fraction)
// return just the number, without any unit appended

Can you look up the measured solubility (mole fraction) of O=[N+]([O-])c1ccc(Oc2ccc([N+](=O)[O-])cc2)cc1 for me?
0.0103

----------
details: in acetone, 308.15 K
METRIC: solubility (mole fraction)
Hey, just send me the number, nothing else.

So what does the record say about solubility (mole fraction) for O=[N+]([O-])c1ccc(Oc2ccc([N+](=O)[O-])cc2)cc1 ?
0.0333

----------
conditions: in ethyl acetate, 308.15 K
METRIC: solubility (mole fraction)
Reply: number alone, nothing else.

Item under review: O=[N+]([O-])c1ccc(Oc2ccc([N+](=O)[O-])cc2)cc1 . Reported solubility (mole fraction)?
0.0266

----------
details: in acetone, 288.15 K
METRIC: solubility (mole fraction)
In your answer, state the number alone without any accompanying words.

Query (compound): O=[N+]([O-])c1ccc(Oc2ccc([N+](=O)[O-])cc2)cc1 ; field requested: solubility (mole fraction)
0.0173

----------
settings: in acetic acid, 283.15 K
METRIC: solubility (mole fraction)
Please state the value as a number alone, without comment.

Name the reported solubility (mole fraction) value associated with the compound O=[N+]([O-])c1ccc(Oc2ccc([N+](=O)[O-])cc2)cc1
0.00292

----------
details: in 2-methoxyethanol, 293.15 K
METRIC: solubility (mole fraction)
# print the numeric value only

Entry O=[N+]([O-])c1ccc(Oc2ccc([N+](=O)[O-])cc2)cc1 has what solubility (mole fraction)?
0.00823

----------
conditions: in methanol, 303.15 K
METRIC: solubility (mole fraction)
Please give the numeric answer without any surrounding text.

Which solubility (mole fraction) value belongs to O=[N+]([O-])c1ccc(Oc2ccc([N+](=O)[O-])cc2)cc1 ?
0.000637

----------
details: in DMAc, 293.15 K
METRIC: solubility (mole fraction)

Look at this molecule and give its reported solubility (mole fraction). O=[N+]([O-])c1ccc(Oc2ccc([N+](=O)[O-])cc2)cc1
0.0913

----------
conditions: in acetone, 303.15 K
METRIC: solubility (mole fraction)
Number, no unit, nothing else.

Using the record for O=[N+]([O-])c1ccc(Oc2ccc([N+](=O)[O-])cc2)cc1 , report its solubility (mole fraction).
0.0281

----------
conditions: in DMF, 298.15 K
METRIC: solubility (mole fraction)
// return a plain number; no unit text

Data request, read-out solubility (mole fraction), for O=[N+]([O-])c1ccc(Oc2ccc([N+](=O)[O-])cc2)cc1
0.077

----------
settings: in acetonitrile, 288.15 K
METRIC: solubility (mole fraction)

Using the record for O=[N+]([O-])c1ccc(Oc2ccc([N+](=O)[O-])cc2)cc1 , report its solubility (mole fraction).
0.00587

----------
details: in 1-methoxy-2-propanol, 308.15 K
METRIC: solubility (mole fraction)

For O=[N+]([O-])c1ccc(Oc2ccc([N+](=O)[O-])cc2)cc1 , what is its reported solubility (mole fraction)?
0.0114

----------
details: in DMAc, 313.15 K
METRIC: solubility (mole fraction)
Simply state the number, no unit and no words.

What value of solubility (mole fraction) has been recorded for this entry: O=[N+]([O-])c1ccc(Oc2ccc([N+](=O)[O-])cc2)cc1
0.144

----------
details: in ethanol, 308.15 K
METRIC: solubility (mole fraction)
Reply with the value as a number alone.

Bench note: what solubility (mole fraction) did O=[N+]([O-])c1ccc(Oc2ccc([N+](=O)[O-])cc2)cc1 show?
0.000807

----------
details: in 1,4-dioxane, 318.15 K
METRIC: solubility (mole fraction)
# print the numeric value only

What value of solubility (mole fraction) has been reported for the following compound? O=[N+]([O-])c1ccc(Oc2ccc([N+](=O)[O-])cc2)cc1
0.0922

----------
conditions: in ethanol, 298.15 K
METRIC: solubility (mole fraction)
Please give only the number in your answer, with no unit.

Please give the measured solubility (mole fraction) for this compound: O=[N+]([O-])c1ccc(Oc2ccc([N+](=O)[O-])cc2)cc1
0.000531

----------
details: in anisole, 298.15 K
METRIC: solubility (mole fraction)
Keep the answer to the number alone.

Entry under review: O=[N+]([O-])c1ccc(Oc2ccc([N+](=O)[O-])cc2)cc1 . Reported solubility (mole fraction)?
0.0395

----------
conditions: in n-butanol, 288.15 K
METRIC: solubility (mole fraction)
Form: value (number only, do not type unit).

I'd like to know its solubility (mole fraction). The molecule in question is O=[N+]([O-])c1ccc(Oc2ccc([N+](=O)[O-])cc2)cc1
0.000337

----------
conditions: in methanol, 298.15 K
METRIC: solubility (mole fraction)

What value of measured solubility (mole fraction) is listed for O=[N+]([O-])c1ccc(Oc2ccc([N+](=O)[O-])cc2)cc1 ?
0.000525

----------
settings: in 1,4-dioxane, 283.15 K
METRIC: solubility (mole fraction)
Number only, no unit.

Item under review: O=[N+]([O-])c1ccc(Oc2ccc([N+](=O)[O-])cc2)cc1 . Reported solubility (mole fraction)?
0.026

----------
details: in 2-methoxyethanol, 313.15 K
METRIC: solubility (mole fraction)

Recorded solubility (mole fraction) for O=[N+]([O-])c1ccc(Oc2ccc([N+](=O)[O-])cc2)cc1 , please?
0.0158

----------
conditions: in ethyl acetate, 313.15 K
METRIC: solubility (mole fraction)
Please respond with just the number, no unit label.

Form field: reported solubility (mole fraction) of O=[N+]([O-])c1ccc(Oc2ccc([N+](=O)[O-])cc2)cc1
0.0316
